# System: SR leukemia
# method description: NCI-60 one-dose screen, 48 h (100 = growth as untreated, 0 = no growth, -100 = all killed)
# condition set: 10 µM unless noted
Compounds without any hit were thinned out: in the full panel of roughly 83,000, 20% have a hit. The source made the active and inactive calls. Rule for the calls: active = growth percent below 10; inactive = the rest.

{"compound": "COc1cc2c(c(OC)c1OC)CCC(c1cccc(C(=O)Nc3ccc(Br)cc3)c1)O2 (stereo not given)", "growth": "27.7% (inactive)"}
{"compound": "Nc1nc2ccccc2c2c(=O)c3cc(Cl)ccc3sc12", "growth": "94.8% (inactive)"}
{"compound": "COc1ccc(NC(=O)c2ccc(Nc3ncnc4c3cnn4-c3cccc(F)c3)cc2)cc1", "growth": "95.2% (inactive)"}
{"compound": "CCn1cc(C(=O)N/N=C/c2cccc(F)c2)c(=O)c2cc(F)c(N3CCNC(C)C3)c(F)c21 (stereo not given)", "growth": "-29.2% (active)"}
{"compound": "Cc1ccc(-c2nc(SCC(=O)N3CCN(c4cc5c(cc4F)c(=O)c(C(=O)O)cn5C4CC4)CC3)nc(Cl)c2C#N)cc1", "growth": "103% (inactive)"}

====

Reported growth values for the following compounds.
# System: SNB-19 CNS
# method description: NCI-60 one-dose screen, 48 h (100 = growth as untreated, 0 = no growth, -100 = all killed)
# condition set: 10 µM unless noted
This is part of a sample that, as a whole, favours compounds with a hit. Of some 83,000 tested, about 20% had one in any assay.
endpoint: growth (%)

{"compound": "CC(C)(C)c1ccc(S(=O)(=O)Oc2ccc(-c3sc4cc(OS(=O)(=O)c5ccc(C(C)(C)C)cc5)ccc4c3C(=O)c3ccc(OCCN4CCCCC4)cc3)cc2)cc1", "endpoint": "growth", "result": 97.6}
{"compound": "CCn1cc(C(=O)N/N=C/c2cccc(F)c2)c(=O)c2cc(F)c(N3CCNC(C)C3)c(F)c21 (centres undefined)", "endpoint": "growth", "result": -59.4}
{"compound": "COc1ccc2cc(-c3nc4ccc(C)cn4c3NCc3ccco3)c(=O)[nH]c2c1", "endpoint": "growth", "result": 34.6}
{"compound": "CS(=O)(=O)Nc1cc(-c2ccc3ncnc(Nc4ccc5c(cnn5Cc5ccccc5F)c4)c3c2)cnc1Cl", "endpoint": "growth", "result": 49.1}

====

# System: LOX IMVI melanoma
# method description: NCI-60 one-dose screen, 48 h (100 = growth as untreated, 0 = no growth, -100 = all killed)
# condition set: 10 µM unless noted
Compounds without any hit were thinned out: in the full panel of roughly 83,000, 20% have a hit.
endpoint: growth (%)

{"compound": "CC/C(=C(/c1ccc(O)cc1)c1ccc(OCCN2CCCCC2)cc1)c1ccc(OC)cc1", "result units": "%", "result": -40}
{"compound": "C/C(=N\\Nc1ccccc1)c1ccc(NC2=CC(=O)c3ccccc3C2=O)cc1", "result units": "%", "result": 21.4}
{"compound": "O=C(CN1C(=O)S/C(=C\\C(Cl)=C\\c2ccccc2)C1=O)NC1CCS(=O)(=O)C1 (stereo not given)", "result units": "%", "result": 14.2}
{"compound": "CN(C)c1ccc(/C=C2\\C=C(c3nc4ccccc4s3)OC2=O)cc1", "result units": "%", "result": 91}
{"compound": "CCOc1ccc(/C=C/C(=O)c2cccc(OCCCOc3cccc(C(=O)/C=C/c4ccc(OCC)cc4)c3)c2)cc1", "result units": "%", "result": 83.5}
{"compound": "O=C(Nc1ncc(Cc2ccccc2)s1)c1sc2ccccc2c1Cl", "result units": "%", "result": 46.9}
{"compound": "Nc1ncccc1O", "result units": "%", "result": 75.2}
{"compound": "Nc1c(Br)cc2c(c1Br)Cc1cc([N+](=O)[O-])ccc1-2", "result units": "%", "result": 102}
{"compound": "COc1ccc(C2C3=C(COC3=O)N(CCO)c3cc4c(cc32)OCO4)cc1OC (stereo not given)", "result units": "%", "result": 77.2}
{"compound": "O=S(=O)(Nc1cc(F)cc(F)c1)c1ccc(-c2cnc(C3CC3)o2)cc1", "result units": "%", "result": 36.3}

====

Reported growth values for the following compounds.
# System: SF-539 CNS
# method description: NCI-60 one-dose screen, 48 h (100 = growth as untreated, 0 = no growth, -100 = all killed)
# condition set: 10 µM unless noted
Compounds without any hit were thinned out: in the full panel of roughly 83,000, 20% have a hit. Calls of active or inactive are those of the source. How the source made its calls: active means growth percent below 10; inactive means the rest.

{"compound": "C/C=C1/CN(CCCCC)CC[C@H]1C(=O)c1cc2ccccc2[nH]1", "tested target": "SF-539 CNS", "growth": "98.9% (inactive)"}
{"compound": "CCN(CC)c1ccc(-c2cc(-c3cc(OC)c(OC)c(OC)c3)nc(N3CCC(O)CC3)c2C#N)cc1", "tested target": "SF-539 CNS", "growth": "-44.3% (active)"}
{"compound": "O=C1Nc2ccccc2/C1=N/N1C(=O)CN(CCCl)C1=O", "tested target": "SF-539 CNS", "growth": "105% (inactive)"}
{"compound": "CCOC(=O)c1cn2ncnc(Oc3ccc(NC(=O)NC4CC4)c(Cl)c3)c2c1C", "tested target": "SF-539 CNS", "growth": "79.5% (inactive)"}
{"compound": "CCOC(=O)c1c(NC(=O)c2ccccc2)sc2c3c(ccc12)OCN(C)C3", "tested target": "SF-539 CNS", "growth": "-43.7% (active)"}
{"compound": "CNC(=O)Nc1ccc(-c2ccc3ncnc(Nc4cccc(Cl)c4)c3c2)cc1", "tested target": "SF-539 CNS", "growth": "74.3% (inactive)"}
{"compound": "CS(=O)(=O)Nc1cc(-c2ccc3ncnc(Nc4ccc5c(cnn5Cc5ccccc5F)c4)c3c2)cnc1Cl", "tested target": "SF-539 CNS", "growth": "34.5% (inactive)"}
{"compound": "CCOc1ccc(NC(=O)Nc2ccc(OCC)cc2)cc1", "tested target": "SF-539 CNS", "growth": "97.2% (inactive)"}
{"compound": "CN(C)C1CN(C(=O)c2cc(-c3ccc4ncnc(N5CCc6cc(F)c(Cl)cc65)c4c3)cnc2N)C1", "tested target": "SF-539 CNS", "growth": "-1.35% (active)"}
{"compound": "CSc1ccc2c3c(n(C[C@H](O)CO)c(=O)c2c1)-c1ccccc1C3=O", "tested target": "SF-539 CNS", "growth": "10.3% (inactive)"}
{"compound": "O=C(OCc1ccc2c(Cl)cc(Cl)c(O)c2n1)N1CCN(C(=O)c2cc3ccccc3[nH]2)CC1", "tested target": "SF-539 CNS", "growth": "39.8% (inactive)"}
{"compound": "Cc1cc2oc(/C=C/c3ccccc3)cc(=O)c2c(C)c1Cl", "tested target": "SF-539 CNS", "growth": "98.9% (inactive)"}
{"compound": "Cc1ccc(C2CC(c3cccc(Nc4ccncc4)c3)=Nc3c(N)nc(N)nc3N2)cc1 (stereo unspecified)", "tested target": "SF-539 CNS", "growth": "67.9% (inactive)"}
{"compound": "Cc1[nH]c(C(=O)Nc2ccccc2OC2CCN(CCN3CCOCC3)CC2)c(Cl)c1Cl", "tested target": "SF-539 CNS", "growth": "89.6% (inactive)"}
{"compound": "COc1ccc(N=C2NN=C(c3c[nH]c4ccccc34)CS2)cc1OC", "tested target": "SF-539 CNS", "growth": "51.8% (inactive)"}
{"compound": "COc1ccc(-c2cc(-c3cc(OC)ccc3OC)nc(SCC(C)=O)c2C#N)cc1", "tested target": "SF-539 CNS", "growth": "64.9% (inactive)"}
{"compound": "Nc1c(Cl)cc(/C=C2\\C=Cc3ccccc32)cc1Cl", "tested target": "SF-539 CNS", "growth": "97.5% (inactive)"}
{"compound": "COC(=O)c1c(C)nc(C)c2c1C(=O)C=C(NCc1ccccc1)C2=O", "tested target": "SF-539 CNS", "growth": "96.9% (inactive)"}
{"compound": "CN1CC(c2ccc(Br)cc2)C(C(=O)c2ccc(Br)cc2)C12C(=O)Nc1ccccc12 (stereo unspecified)", "tested target": "SF-539 CNS", "growth": "90.5% (inactive)"}
{"compound": "CCCCCc1ccc(S(=O)(=O)Nc2ccc3nc(N)oc3c2)cc1", "tested target": "SF-539 CNS", "growth": "71.3% (inactive)"}
{"compound": "COCCn1cc(-c2nc(-c3cc4cccnc4n3C)cs2)c2ccccc21", "tested target": "SF-539 CNS", "growth": "60.6% (inactive)"}

====

# Test system: UACC-257 melanoma
# method description: NCI-60 one-dose screen, 48 h
# condition set: 10 µM unless noted
Compounds without any hit were thinned out: in the full panel of roughly 83,000, 20% have a hit. Active and inactive are the calls of the source. How the source made its calls: active means growth percent below 10; inactive means the rest.
Classes used: YES (active), NO (inactive)

{"mol": "N=C(N)c1ccc(-c2ccc(-c3cc(Cl)cc(Cl)c3)s2)s1", "tested target": "UACC-257 melanoma", "class": "YES"}
{"mol": "CS(=O)(=O)c1ccc(-c2nc3ccccc3n2CC(=O)N/N=C/c2ccccc2)cc1", "tested target": "UACC-257 melanoma", "class": "NO"}
{"mol": "N#Cc1ccc(/C=C/c2cn(-c3ccccc3)nc2-c2cccc([N+](=O)[O-])c2)cc1", "tested target": "UACC-257 melanoma", "class": "NO"}
{"mol": "Cc1ccc(S(=O)(=O)c2nc(-c3ccccc3)oc2SCC(N)=O)cc1", "tested target": "UACC-257 melanoma", "class": "NO"}
{"mol": "CCN(CC)CCOc1ccc2ccc(=O)oc2c1", "tested target": "UACC-257 melanoma", "class": "NO"}
